target: JNK3 (Homo sapiens, UniProt P53779); experiment: Biochemical JNK3 kinase inhibition (Z'-lyte format); conditions: Table 2
Sequence (P53779 whole entry): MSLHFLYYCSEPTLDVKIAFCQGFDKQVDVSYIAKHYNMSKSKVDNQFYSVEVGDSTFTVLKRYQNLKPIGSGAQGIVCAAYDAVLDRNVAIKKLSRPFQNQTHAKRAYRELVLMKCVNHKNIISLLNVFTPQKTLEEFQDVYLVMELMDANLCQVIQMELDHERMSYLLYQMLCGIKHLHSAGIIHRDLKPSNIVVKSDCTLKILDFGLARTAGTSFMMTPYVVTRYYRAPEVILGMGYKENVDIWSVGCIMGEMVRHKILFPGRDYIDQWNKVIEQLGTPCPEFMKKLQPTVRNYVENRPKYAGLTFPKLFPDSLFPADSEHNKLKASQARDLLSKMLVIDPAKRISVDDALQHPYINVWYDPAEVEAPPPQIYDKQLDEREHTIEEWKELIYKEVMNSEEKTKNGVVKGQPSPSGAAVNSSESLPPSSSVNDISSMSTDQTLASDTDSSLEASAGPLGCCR
Recorded IC50 values for a group of compounds are listed next.
Dear colleague, please return just the value in nM, with no unit written.

CCC(=O)Nc1cccc(C(=O)Nc2ccc(Nc3nccc(-c4cccnc4)n3)cc2)c1 [JNK-IN-6] | 148
CN(C)C/C=C/C(=O)Nc1cccc(C(=O)Nc2ccc(Nc3nccc(-c4c(-c5ccccc5)nn5ccccc45)n3)cc2)c1 [JNK-IN-11] | 0.5
CN(C)C/C=C/C(=O)Nc1cccc(C(=O)Nc2ccc(Nc3nccc(/C(C#N)=C4\Nc5ccccc5S4)n3)cc2)c1 [JNK-IN-12] | 11

Prompt: For Cc1ccc(C(=O)Nc2ccc(Nc3nccc(-c4cccnc4)n3)cc2)cc1NC(=O)/C=C/CN(C)C [JNK-IN-10] , write its IC50.
Response: 0.5

Prompt: For C=CC(=O)Nc1cccc(C(=O)Nc2ccc(Nc3nccc(-c4cccnc4)n3)cc2)c1 [JNK-IN-5] , write its IC50.
Response: 0.96

Prompt: For Cc1ccc(NC(=O)/C=C/CN(C)C)cc1C(=O)Nc1ccc(Nc2nccc(-c3cccnc3)n2)cc1 [JNK-IN-9] , write its IC50.
Response: 0.5

----------
system: c-Jun phosphorylation; assay: High throughput microscopy of c-Jun phosphorylation in A375 cells; format: cell-based; conditions: Homo sapiens, A-375; A375 cells, anisomycin stimulation, high-throughput microscopy, Table 4; read-out: Cellular EC50 pc-Jun
value.kind: pEC50
API: returns pEC50 as number; meaning -log10 of concentration in mol/L.

Cc1cc(NC(=O)c2cccc(NC(=O)/C=C/CN(C)C)c2)ccc1Nc1nccc(-c2cccnc2)n1 | 6.37

Now for a further compound.
Prompt: For c-Jun phosphorylation, give the measured pEC50 of the entry `CN(C)C/C=C/C(=O)Nc1cccc(C(=O)Nc2ccc(Nc3nccc(/C(C#N)=C4\Nc5ccccc5S4)n3)cc2)c1`
Response: 6.90

----------
test system: phosphorylation of Msk1; test: High-throughput microscopy, phosphorylation of Msk1; format: cell-based; conditions: Homo sapiens, A-375, A375 cells, anisomycin stimulation, read-out: Cellular EC50 pMSK1
pEC50: −log10 of the molar value.
value.kind: pEC50

Use these answered entries as a reference point.
CN(C)C/C=C/C(=O)Nc1cccc(C(=O)Nc2ccc(Nc3nccc(/C(C#N)=C4\Nc5ccccc5S4)n3)cc2)c1 | < 5.00
Cc1cc(NC(=O)c2cccc(NC(=O)/C=C/CN(C)C)c2)ccc1Nc1nccc(-c2cccnc2)n1 | < 5.00

Prompt: For `CN(C)C/C=C/C(=O)Nc1cccc(C(=O)Nc2ccc(Nc3nccc(-c4cccnc4)n3)cc2)c1` , write its pEC50.
Response: < 5.00

----------
target: JNK1 (Homo sapiens, UniProt P45983); assay: Biochemical JNK1 kinase inhibition (Z'-lyte format); settings: Table 2
Sequence (P45983 whole entry): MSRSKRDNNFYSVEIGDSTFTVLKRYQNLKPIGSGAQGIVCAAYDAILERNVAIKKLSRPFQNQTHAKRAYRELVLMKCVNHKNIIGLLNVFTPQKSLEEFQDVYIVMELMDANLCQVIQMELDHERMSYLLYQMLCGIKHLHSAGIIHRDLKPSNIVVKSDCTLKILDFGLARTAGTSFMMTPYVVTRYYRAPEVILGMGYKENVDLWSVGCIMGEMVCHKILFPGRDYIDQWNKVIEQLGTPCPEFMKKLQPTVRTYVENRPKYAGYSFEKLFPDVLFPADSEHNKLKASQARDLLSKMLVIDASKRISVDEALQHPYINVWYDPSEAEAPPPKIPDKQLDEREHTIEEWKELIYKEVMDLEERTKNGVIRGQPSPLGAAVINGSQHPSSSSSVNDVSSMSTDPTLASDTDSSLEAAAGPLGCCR
value.kind: IC50 (nM)
Dear colleague, please return just the value in nM, with no unit written.

C=CC(=O)Nc1cccc(C(=O)Nc2ccc(Nc3nccc(-c4cccnc4)n3)cc2)c1 | 2.11
CN(C)C/C=C/C(=O)Nc1cccc(C(=O)Nc2ccc(Nc3nccc(-c4c(-c5ccccc5)nn5ccccc45)n3)cc2)c1 | 1.34
CN(C)C/C=C/C(=O)Nc1cccc(C(=O)Nc2ccc(Nc3nccc(-c4cccnc4)n3)cc2)c1 | 1.54

Now for a further molecule.
Prompt: For `CN(C)C/C=C/C(=O)Nc1cccc(C(=O)Nc2ccc(Nc3nccc(/C(C#N)=C4\Nc5ccccc5S4)n3)cc2)c1` , write its IC50.
Response: 13
